Values from ChEMBL document CHEMBL4028802

A collection of molecules and their measured DILI_severity_class
Species: Homo sapiens
Assay: Liver toxicity in human assessed as induction of drug-induced liver injury by measuring severity class index

molecule	DILI_severity_class
OC(CCN1CCCCC1)(c1ccccc1)C1CC2C=CC1C2 (configuration not stated)	0
OC[C@H]1O[C@@H](n2cnc3c2NC=NC[C@H]3O)C[C@@H]1O	3
Cc1nc(Nc2ncc(C(=O)Nc3c(C)cccc3Cl)s2)cc(N2CCN(CCO)CC2)n1.O	4
CC1Cc2ccccc2N1NC(=O)c1ccc(Cl)c(S(N)(=O)=O)c1 (configuration not stated) [INDAPAMIDE]	5
CO[C@H]1C[C@@H]2CC[C@@H](C)[C@@](O)(O2)C(=O)C(=O)N2CCCC[C@H]2C(=O)O[C@H]([C@H](C)C[C@@H]2CC[C@@H](OCCO)[C@H](OC)C2)CC(=O)[C@H](C)/C=C(\C)[C@@H](O)[C@@H](OC)C(=O)[C@H](C)C[C@H](C)/C=C/C=C/C=C/1C	4
Cc1ccccc1C(=O)Nc1ccc(C(=O)N2CCCC(O)c3cc(Cl)ccc32)c(C)c1 (configuration not stated)	8
COc1cc(NCc2ccc3nc(N)nc(N)c3c2C)cc(OC)c1OC [TRIMETREXATE]	3

---

DILI_severity_class values, listed per item
Species on record: Homo sapiens
Test: Liver toxicity in human assessed as induction of drug-induced liver injury by measuring severity class index

compound	DILI_severity_class
C1CNCCN1.C[C@]12CC[C@@H]3c4ccc(OS(=O)(=O)O)cc4CC[C@H]3[C@@H]1CCC2=O [ESTROPIPATE]	2
Cc1ncc2n1-c1ccc(Cl)cc1C(c1ccccc1F)=NC2	0
CN1C(C(=O)Nc2ccccn2)=C(O)c2ccccc2S1(=O)=O	3
CNCCCC1c2ccccc2C=Cc2ccccc21	0
C[C@H](CS)C(=O)N1CCC[C@H]1C(=O)O	7
CC(C)NCC(O)c1ccc(NS(C)(=O)=O)cc1 (configuration not stated)	3
CO[C@H]1/C=C/O[C@@]2(C)Oc3c(C)c(O)c4c(O)c(c(/C=N/N5CCN(C)CC5)c(O)c4c3C2=O)NC(=O)/C(C)=C\C=C\[C@H](C)[C@H](O)[C@@H](C)[C@@H](O)[C@@H](C)[C@H](OC(C)=O)[C@@H]1C	8
COCCCOc1ccnc(C[S+]([O-])c2nc3ccccc3[nH]2)c1C (configuration not stated)	3
NS(=O)(=O)c1cc(Cl)c(Cl)c(S(N)(=O)=O)c1 [DICHLORPHENAMIDE]	0
COC(=O)[C@@H]1CC2=CC(=O)CC[C@]2(C)[C@@]23O[C@@H]2C[C@@]2(C)[C@@H](CC[C@@]24CCC(=O)O4)[C@H]13	4
CNCCC(Oc1ccc(C(F)(F)F)cc1)c1ccccc1 (configuration not stated)	3
CC(C(=O)O)c1ccc(-c2ccccc2)c(F)c1 (configuration not stated)	3
C=C1CC[C@@]2(O)[C@H]3Cc4ccc(O)c5c4[C@@]2(CCN3CC2CC2)[C@H]1O5.Cl [NALMEFENE HYDROCHLORIDE]	3
CC(C)NCC(O)c1ccc(O)c(O)c1 (configuration not stated)	0
CC(C)c1nc(CN(C)C(=O)N[C@H](C(=O)N[C@@H](Cc2ccccc2)C[C@H](O)[C@H](Cc2ccccc2)NC(=O)OCc2cncs2)C(C)C)cs1	8
O=c1[nH]c2ccccc2n1C1CCN(CCCC(c2ccc(F)cc2)c2ccc(F)cc2)CC1 [PIMOZIDE]	0
C=C(CC)C(=O)c1ccc(OCC(=O)O)c(Cl)c1Cl	5

---

Species: Homo sapiens
Experiment: Liver toxicity in human assessed as induction of drug-induced liver injury by measuring verified drug-induced liver injury concern status

compound	DILI_Concern
CCOC(=O)Nc1ccc2c(c1)N(C(=O)CCN1CCOCC1)c1ccccc1S2	Ambiguous-Dili-Concern
Fc1ccc([C@@H]2CCNC[C@H]2COc2ccc3c(c2)OCO3)cc1	Less-Dili-Concern
CCCC[C@](C)(O)C/C=C/[C@H]1[C@H](O)CC(=O)[C@@H]1CCCCCCC(=O)OC	Ambiguous-Dili-Concern
C[C@@H]1[C@H](O)[C@@H](C)/C=C/C=C/C=C/C=C/C=C/C=C/C=C/[C@H](O[C@@H]2O[C@H](C)[C@@H](O)[C@H](N)[C@@H]2O)C[C@@H]2O[C@](O)(C[C@@H](O)C[C@@H](O)[C@H](O)CC[C@@H](O)C[C@@H](O)CC(=O)O[C@H]1C)C[C@H](O)[C@H]2C(=O)O	Less-Dili-Concern
Cc1cc(C)cc(OCC2CNC(=O)O2)c1 (configuration not stated)	Less-Dili-Concern
Nc1nc(Cl)nc2c1ncn2[C@@H]1O[C@H](CO)[C@@H](O)[C@@H]1F	Ambiguous-Dili-Concern

---

Species: Homo sapiens
Test: Liver toxicity in human assessed as induction of drug-induced liver injury by measuring verified drug-induced liver injury concern status
assay-readout: DILI_Concern

> print(dat)
                                   compound  assay.readout           reported
1                   FC(F)(F)C(F)(F)C(F)(F)F   DILI_Concern    No-Dili-Concern
2  CC(C)NCC(O)c1cc(O)cc(O)c1 (stereo not given)   DILI_Concern    No-Dili-Concern
3  Cc1cnc(C(=O)NCCc2ccc(S(=O)(=O)NC(=O)NC3CCCCC3)cc2)cn1 [GLIPIZIDE]   DILI_Concern  Less-Dili-Concern
4  CC(=O)Oc1cc2c(s1)CCN(C(C(=O)C1CC1)c1ccccc1F)C2.Cl (stereo not given) [PRASUGREL HYDROCHLORIDE]   DILI_Concern  Less-Dili-Concern

---

Organism: Homo sapiens
Test: Liver toxicity in human assessed as induction of drug-induced liver injury by measuring severity class index

compound	DILI_severity_class
CN(C)CCCN1c2ccccc2CCc2ccc(Cl)cc21 [CLOMIPRAMINE]	8
CCN(CC)CCNC(=O)c1c(C)[nH]c(/C=C2\C(=O)Nc3ccc(F)cc32)c1C [SUNITINIB]	8
Cc1cc(C)cc(OCC2CNC(=O)O2)c1 (stereo unspecified) [METAXALONE]	5
N#Cc1ccc(C(c2ccc(C#N)cc2)n2cncn2)cc1 [LETROZOLE]	2
Cc1oncc1C(=O)Nc1ccc(C(F)(F)F)cc1 [LEFLUNOMIDE]	8
COC(=O)[C@H](c1ccccc1Cl)N1CCc2sccc2C1 [CLOPIDOGREL]	7
Nc1nc(N)c2nc(-c3ccccc3)c(N)nc2n1	5
CNC(=O)c1c(I)c(NC(C)=O)c(I)c(C(=O)[O-])c1I.[Na+] [IOTHALAMATE SODIUM]	0
CCC(C)CCCCC(=O)N[C@@H](CCNCS(=O)(=O)O)C(=O)N[C@H](C(=O)N[C@@H](CCNCS(=O)(=O)O)C(=O)N[C@H]1CCNC(=O)[C@H]([C@@H](C)O)NC(=O)[C@H](CCNCS(=O)(=O)O)NC(=O)[C@H](CCNCS(=O)(=O)O)NC(=O)[C@H](CC(C)C)NC(=O)[C@@H](CC(C)C)NC(=O)[C@H](CCNCS(=O)(=O)O)NC1=O)[C@@H](C)O (stereo partly specified)	0
CCc1nn(CCCN2CCN(c3cccc(Cl)c3)CC2)c(=O)n1CCOc1ccccc1 [NEFAZODONE]	8
Cc1c(-c2ccccc2)oc2c(C(=O)OCCN3CCCCC3)cccc2c1=O [FLAVOXATE]	0
O=[N+]([O-])O[C@H]1CO[C@H]2[C@@H]1OC[C@H]2O[N+](=O)[O-] [ISOSORBIDE DINITRATE]	0
CCn1cc(C(=O)O)c(=O)c2ccc(C)nc21 [NALIDIXIC ACID]	3
COc1cccc2c1C(=O)c1c(O)c3c(c(O)c1C2=O)C[C@@](O)(C(C)=O)C[C@@H]3O[C@H]1C[C@H](N)[C@H](O)[C@H](C)O1 [DAUNORUBICIN]	0
C[C@H]1[C@H](c2ccccc2)OCCN1C [PHENDIMETRAZINE]	0
O=C(O)c1cc(=O)c2cc(OCC(O)COc3cccc4oc(C(=O)O)cc(=O)c34)ccc2o1 (stereo unspecified)	3

---

// DILI_severity_class lookup, one value per entry
Species on record: Homo sapiens
Experiment: Liver toxicity in human assessed as induction of drug-induced liver injury by measuring severity class index
assay-readout: DILI_severity_class

compound	assay-readout	reported
CCc1ccc(CCOc2ccc(CC3SC(=O)NC3=O)cc2)nc1 (stereo not drawn)	DILI_severity_class	3
CN1c2c(oc(=O)n(-c3ccccn3)c2=O)-c2ccccc2S1(=O)=O	DILI_severity_class	8
NCC[C@H](O)C(=O)N[C@@H]1C[C@H](N)[C@@H](O[C@H]2O[C@H](CN)[C@@H](O)[C@H](O)[C@H]2O)[C@H](O)[C@H]1O[C@H]1O[C@H](CO)[C@@H](O)[C@H](N)[C@H]1O	DILI_severity_class	0
CC1=C(/C=C/C(C)=C/C=C/C(C)=C\C(=O)O)C(C)(C)CCC1	DILI_severity_class	5
CNCCCC12CCC(c3ccccc31)c1ccccc12	DILI_severity_class	5
CO[C@H]1/C=C/O[C@@]2(C)Oc3c(C)c(O)c4c(O)c(c(/C=N/N5CCN(C6CCCC6)CC5)c(O)c4c3C2=O)NC(=O)/C(C)=C\C=C\[C@H](C)[C@H](O)[C@@H](C)[C@@H](O)[C@@H](C)[C@H](OC(C)=O)[C@@H]1C	DILI_severity_class	4
CCC1(c2ccccc2)C(=O)NC(=O)NC1=O	DILI_severity_class	3
OC[C@H]1OC(O)[C@H](O)[C@@H](O)[C@@H]1O (stereo partly drawn)	DILI_severity_class	0
